- testMethodNotes: Stability of the compound in serum (unknown origin) measured after 24 hrs by iTLC analysis
- Format: ADME, cell-free
- testConditions: read-out: Stability
testReadout: remaining at 24 h (%)
Report as a plain number; the unit % is understood.

Please fill in: remaining at 24 h reported for `N#C[C@@H]1CC(F)(F)CN1C(=O)CNC(=O)c1ccnc2ccc(OCCCN3CCN(C(=O)c4ccc([211At])cc4)CC3)cc12` = 85.6

###

- testMethodNotes: Stability of the compound in saline measured after 24 hrs by iTLC analysis
- Type: physicochemical
- testConditions: read-out: Stability
testReadout: remaining at 24 h
Note: a bare number is incomplete; add the unit.

GET /value?item= `N#C[C@@H]1CC(F)(F)CN1C(=O)CNC(=O)c1ccnc2ccc(OCCCN3CCN(C(=O)c4ccc([211At])cc4)CC3)cc12` &field=remaining at 24 h returns 94.7%
